Catalogue of Therapeutic index readings, one per entry.
System: M5076 (histiocytoma expressing P-gp)
PROTOCOL DESCRIPTION: Antitumor effect in mice subcutaneously transplanted with M5076
Assay type: in vivo, Mice (C57BL/6)
CONDITION PARAMETERS: M5076, iv; MTD/MED
METRIC NAME: Therapeutic index

- COMPOUND: "CC(=O)O[C@@]12CO[C@@H]1CC[C@@]1(C)[C@@H]3O[C@H](CN4CC[C@H]4CO)O[C@@H]3C3=C(C)[C@@H](OC(=O)[C@H](O)[C@@H](NC(=O)OC(C)(C)C)c4ncccc4F)C[C@@](O)([C@@H](OC(=O)c4ccccc4)[C@@H]12)C3(C)C [Example 22]"
  READING: 2.0
- COMPOUND: "CC(=O)O[C@@]12CO[C@@H]1CC[C@@]1(C)[C@@H]3O[C@H](CN4CCC4)O[C@@H]3C3=C(C)[C@@H](OC(=O)[C@H](O)[C@@H](NC(=O)OC(C)(C)C)c4ncco4)C[C@@](O)([C@@H](OC(=O)c4ccccc4)[C@@H]12)C3(C)C [Example 41]"
  READING: 1.4

* * *

Catalogue of solubility readings, one per entry.
PROTOCOL DESCRIPTION: Solubility in first and second solution for disintegration test (Japanese Pharmacopoeia)
Format: physicochemical
CONDITION PARAMETERS: aqueous buffer, thermodynamic from solid; second solution for disintegration test, pH 6.8, room temperature, 12 hours or longer; read-out: Solubility (μg/mL) pH 6.8
METRIC NAME: solubility (µg/mL)

- STRUCTURE AS SMILES: "CC(=O)O[C@@]12CO[C@@H]1CC[C@@]1(C)[C@@H]3O[C@H](CN4CC(C)(O)C4)O[C@@H]3C3=C(C)[C@@H](OC(=O)[C@H](O)[C@@H](NC(=O)OC(C)(C)C)c4ccccn4)C[C@@](O)([C@@H](OC(=O)c4ccccc4)[C@@H]12)C3(C)C"
  READING: 170
- STRUCTURE AS SMILES: "COC1CN(C[C@@H]2O[C@@H]3C4=C(C)[C@@H](OC(=O)[C@H](O)[C@@H](NC(=O)OC(C)(C)C)c5ncccc5F)C[C@@](O)([C@@H](OC(=O)c5ccccc5)[C@H]5[C@@](C)(CC[C@H]6OC[C@]65OC(C)=O)[C@@H]3O2)C4(C)C)C1"
  READING: 10
- STRUCTURE AS SMILES: "CC(=O)O[C@@]12CO[C@@H]1CC[C@@]1(C)[C@@H]3O[C@H](CN4CCC4)O[C@@H]3C3=C(C)[C@@H](OC(=O)[C@H](O)[C@@H](NC(=O)OC(C)(C)C)c4ccccn4)C[C@@](O)([C@@H](OC(=O)c4ccccc4)[C@@H]12)C3(C)C"
  READING: 170
- STRUCTURE AS SMILES: "CC(=O)O[C@@]12CO[C@@H]1CC[C@@]1(C)[C@@H]3O[C@H](CN4CC(O)C4)O[C@@H]3C3=C(C)[C@@H](OC(=O)[C@H](O)[C@@H](NC(=O)OC(C)(C)C)c4ccccn4)C[C@@](O)([C@@H](OC(=O)c4ccccc4)[C@@H]12)C3(C)C"
  READING: 140

* * *

Catalogue of solubility readings, one per entry.
PROTOCOL DESCRIPTION: Solubility in first and second solution for disintegration test (Japanese Pharmacopoeia)
Assay type: physicochemical
CONDITION PARAMETERS: simulated gastric fluid, thermodynamic from solid; first solution for disintegration test, pH 1.2, room temperature, 12 hours or longer; read-out: Solubility (μg/mL) pH 1.2

- STRUCTURE AS SMILES: "CC(=O)O[C@@]12CO[C@@H]1CC[C@@]1(C)[C@@H]3O[C@H](CN4CC(C(=O)N(C)C)C4)O[C@@H]3C3=C(C)[C@@H](OC(=O)[C@H](O)[C@@H](NC(=O)OC(C)(C)C)c4ccccn4)C[C@@](O)([C@@H](OC(=O)c4ccccc4)[C@@H]12)C3(C)C"
  UNIT INFO: "µg/mL"
  solubility: 1400
- STRUCTURE AS SMILES: "CC(=O)O[C@@]12CO[C@@H]1CC[C@@]1(C)[C@@H]3O[C@H](CN4CC(C)(O)C4)O[C@@H]3C3=C(C)[C@@H](OC(=O)[C@H](O)[C@@H](NC(=O)OC(C)(C)C)c4ccccn4)C[C@@](O)([C@@H](OC(=O)c4ccccc4)[C@@H]12)C3(C)C"
  UNIT INFO: "µg/mL"
  solubility: 1300
- STRUCTURE AS SMILES: "CC(=O)O[C@@]12CO[C@@H]1CC[C@@]1(C)[C@@H]3O[C@H](CN4CCC4)O[C@@H]3C3=C(C)[C@@H](OC(=O)[C@H](O)[C@@H](NC(=O)OC(C)(C)C)c4ccccn4)C[C@@](O)([C@@H](OC(=O)c4ccccc4)[C@@H]12)C3(C)C"
  UNIT INFO: "µg/mL"
  solubility: 1200
- STRUCTURE AS SMILES: "CC(=O)O[C@@]12CO[C@@H]1CC[C@@]1(C)[C@@H]3O[C@H](CN4CCC4)O[C@@H]3C3=C(C)[C@@H](OC(=O)[C@H](O)[C@@H](NC(=O)OC(C)(C)C)c4ncccc4F)C[C@@](O)([C@@H](OC(=O)c4ccccc4)[C@@H]12)C3(C)C"
  UNIT INFO: "µg/mL"
  solubility: 1100
